# protocol: chemical genetic growth profiling, strain panel (AID 1159580);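 note: tested at 20 µM; growth read once vehicle control cultures reached saturation at 30 °C; 1 = growth at the plate median or of vehicle wells; lower values mean less growth of the strain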
# measurement.conditions: S. cerevisiae deletion strains, growth OD, locus YJL187C, strain SWE1, stronger effect = lower value
In all, about 5,500 compounds went through this assay and about 2,000 (36%) were called active. Not shown: some 18% with an inconclusive outcome. The list shows a part of the results.
assay.endpoint: normalized growth
Answers are plain numbers.

In the examples that follow, each entry is paired with its recorded normalized growth.
>  <compound>
O=C(O)CNCP(=O)(O)O

>  <normalized growth>
1.01

$$$$
>  <compound>
CC(C)(C)c1nc(N)sc1Br

>  <normalized growth>
1

$$$$
>  <compound>
COC(=O)c1ccc([N+](=O)[O-])cc1Cl

>  <normalized growth>
0.991

$$$$

Hi! Can you tell me normalized growth for each of these compounds?
1. COc1cc(/C=C/C(=O)O)cc(OC)c1OC
2. O=C(O)P(=O)(O)O

Reply |
[0.991, 0.965]

----------
For each of the compounds below, state its normalized growth.
# protocol: chemical genetic growth profiling, strain panel (AID 1159580);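 note: tested at 20 µM; growth read once vehicle control cultures reached saturation at 30 °C; 1 = growth at the plate median or of vehicle wells; lower values mean less growth of the strain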
# measurement.conditions: S. cerevisiae deletion strains, growth OD, locus YBR229C, strain ROT2, stronger effect = lower value
Hit rate of the full screen: of about 5,500 compounds, about 2,000 (36%) were called active. Inconclusive results (about 18%) are left out. The list shows a part of the results.

In the examples that follow, each entry is paired with its recorded normalized growth.
>  <compound>
O=C1O[C@@H](CO)[C@H](O)[C@@H](O)[C@@H]1O

>  <result>
1 (inactive)

$$$$
>  <compound>
COc1c(C2COc3cc4c(cc3C2=O)CC(O)C(C)(C)O4)ccc2c1CCC(C)(C)O2 (stereo unspecified)

>  <result>
1.01 (inactive)

$$$$
>  <compound>
C[C@@H]1CC2C3CCC4=CC(=O)C=C[C@]4(C)[C@@]3(F)[C@@H](O)C[C@]2(C)[C@@]1(O)C(=O)COP(=O)(O)O (stereo partly specified)

>  <result>
1 (inactive)

$$$$
>  <compound>
O=C(O)CCCCC1SCC2NC(=O)NC21 (stereo unspecified)

>  <result>
1 (inactive)

$$$$
>  <compound>
O=C(CC(Nc1ccccc1)c1ccccc1)C1CC1 (stereo unspecified)

>  <result>
0.99 (inactive)

$$$$
>  <compound>
COc1ccc(/C=C/C(=O)O)cc1OC

>  <result>
1.02 (inactive)

$$$$

Hi! Can you tell me normalized growth for each of these compounds?
1. COc1cc(/C=C/C(=O)O)ccc1O
2. S=C(NCCCn1ccnc1)Nc1cc(Cl)ccc1Cl

Reply |
["1.01 (inactive)", "0.987 (inactive)"]

Hi! Can you tell me normalized growth for each of these compounds?
1. COc1ccccc1N1CCNCC1
2. C#C[C@]1(O)CCC2C3CCc4cc(O)ccc4C3CC[C@@]21C (stereo partly specified)
3. O=C(/C=C/c1ccc(O)c(O)c1)O[C@@H]1C[C@](O)(C(=O)O)C[C@@H](O)[C@H]1O
4. CC1=C(/C=C/C(C)=C/C=C/C(C)=C\C(=O)O)C(C)(C)CCC1
5. COc1c(C(=O)O)ccc2c1CCC(C)(C)O2
6. Cc1ccc(-n2nc(-c3ccc(OC(F)(F)F)cc3)cc2NC(=O)Nc2ccc(OC(F)(F)F)cc2)cc1C

Reply |
1.01 (inactive)
1.02 (inactive)
0.997 (inactive)
1 (inactive)
1.02 (inactive)
1.02 (inactive)

Hi! Can you tell me normalized growth for each of these compounds?
1. CN(C)c1ccc(/C=N\NC(=O)CCc2ccc(O)cc2)c(Cl)c1
2. CC(C)(O)C#Cc1ccc(/C=N\O)cc1

Reply |
1. 0.998 (inactive)
2. 0.996 (inactive)

Data origin: PubChem BioAssay AID1159580
